The measured values listed here are drawn from the kinase profiling compilation of Christmann-Franck et al. (2016).

- target.or.test.system: ERBB4 (human) (UniProt Q15303)
- Sequence (Q15303 whole entry, looked up): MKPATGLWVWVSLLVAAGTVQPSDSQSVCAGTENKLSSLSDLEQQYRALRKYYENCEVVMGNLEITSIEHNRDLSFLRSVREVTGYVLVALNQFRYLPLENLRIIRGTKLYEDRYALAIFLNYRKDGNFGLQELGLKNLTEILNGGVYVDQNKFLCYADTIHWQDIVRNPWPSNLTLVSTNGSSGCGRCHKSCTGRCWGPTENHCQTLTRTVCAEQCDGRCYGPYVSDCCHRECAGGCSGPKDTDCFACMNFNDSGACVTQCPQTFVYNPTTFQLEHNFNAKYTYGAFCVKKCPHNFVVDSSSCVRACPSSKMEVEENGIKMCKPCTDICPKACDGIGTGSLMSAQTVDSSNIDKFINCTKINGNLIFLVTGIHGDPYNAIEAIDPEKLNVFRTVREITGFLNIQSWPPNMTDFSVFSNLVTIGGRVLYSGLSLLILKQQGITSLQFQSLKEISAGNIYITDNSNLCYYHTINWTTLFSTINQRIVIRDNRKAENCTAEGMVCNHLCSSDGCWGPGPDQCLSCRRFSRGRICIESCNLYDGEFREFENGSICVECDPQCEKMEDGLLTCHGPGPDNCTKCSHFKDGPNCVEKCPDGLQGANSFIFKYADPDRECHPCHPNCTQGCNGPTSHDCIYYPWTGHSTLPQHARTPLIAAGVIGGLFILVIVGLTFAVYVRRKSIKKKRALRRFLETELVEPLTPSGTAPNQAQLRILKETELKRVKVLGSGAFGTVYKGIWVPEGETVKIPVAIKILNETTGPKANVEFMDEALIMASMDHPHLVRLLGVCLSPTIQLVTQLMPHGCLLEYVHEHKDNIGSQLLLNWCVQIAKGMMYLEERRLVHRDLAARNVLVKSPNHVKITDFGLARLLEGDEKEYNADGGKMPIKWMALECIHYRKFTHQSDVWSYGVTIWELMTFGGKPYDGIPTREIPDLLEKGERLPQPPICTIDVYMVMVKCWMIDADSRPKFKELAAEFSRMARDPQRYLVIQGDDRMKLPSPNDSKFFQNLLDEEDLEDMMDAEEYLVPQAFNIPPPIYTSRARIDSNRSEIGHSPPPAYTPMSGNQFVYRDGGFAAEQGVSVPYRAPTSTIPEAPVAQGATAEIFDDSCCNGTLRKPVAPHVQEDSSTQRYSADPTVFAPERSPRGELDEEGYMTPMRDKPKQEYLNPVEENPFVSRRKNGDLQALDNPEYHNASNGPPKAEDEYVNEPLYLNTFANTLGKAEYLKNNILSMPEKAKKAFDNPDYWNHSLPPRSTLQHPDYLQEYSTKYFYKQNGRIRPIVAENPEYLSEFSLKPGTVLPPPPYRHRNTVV
- procedure.details: radiometric filter-binding kinase assay, Kinase HotSpot
- protocol.conditions: compound 0.5 µM; ATP 10 µM
outcome.measure: residual activity (%)
The reply should be a number in %, with the unit left off.

{"smiles.string": "COc1cc(Nc2c(C#N)cnc3cc(OCCCN4CCN(C)CC4)c(OC)cc23)c(Cl)cc1Cl", "outcome.measure": "residual activity", "recorded.measurement": 1.53}
{"smiles.string": "NC(=O)c1cccc(-c2cc(Nc3ccc(OC(F)(F)F)cc3)ncn2)c1", "outcome.measure": "residual activity", "recorded.measurement": 85.3}
{"smiles.string": "COc1ccc2c(c1)/C(=C/c1cnc[nH]1)C(O)=N2", "outcome.measure": "residual activity", "recorded.measurement": 106}
{"smiles.string": "Cc1nc(-c2ccccc2)c(-c2ccncc2)o1", "outcome.measure": "residual activity", "recorded.measurement": 92.2}
{"smiles.string": "CCCCc1c(-c2ccc(OC)cc2)[nH]c2nccnc12", "outcome.measure": "residual activity", "recorded.measurement": 109}
{"smiles.string": "O=C1C(Cl)=C(N2C(=O)CCC2=O)C(=O)c2ccccc21", "outcome.measure": "residual activity", "recorded.measurement": 110}
{"smiles.string": "Cn1c2ccccc2c2c3c(c4c5ccccc5n(CCC#N)c4c21)CNC3=O", "outcome.measure": "residual activity", "recorded.measurement": 100}
{"smiles.string": "CN(C)c1ccc(/C=C2\\C(=O)Nc3ccccc32)cc1", "outcome.measure": "residual activity", "recorded.measurement": 97.7}
{"smiles.string": "COc1ccc(S(=O)(=O)N(CCO)c2ccccc2CN(C)C/C=C/c2ccc(Cl)cc2)cc1", "outcome.measure": "residual activity", "recorded.measurement": 104}
{"smiles.string": "O=C1c2ccccc2-c2nc3nnnn3nc21", "outcome.measure": "residual activity", "recorded.measurement": 50.2}

For the next question, use this molecule.
For reference, reported residual activity for Fc1ccc(-c2nc3n(c2-c2ccncc2)CCS3)cc1 stands at 83
